Just for reference, patent US6337417B1 is where these values come from.

So I've got a bunch of compounds here, and I need their Herbicidal Effect rice values.
System: rice
Method: Experiment 5 foliage treatment: rice
Assay type: in vivo
Set-up: key: 5: completely killed; 4: seriously injured; 3: considerably injured; 2: somewhat injured; 1: slightly injured; 0: not injured (normally grown)
Reported Conditions: 80 g/10a, foliage spray of wettable powder suspension, evaluated 4 weeks after treatment
Answers are plain numbers.

Solved cases below.
Compound | Herbicidal Effect rice
CCCCOC(=O)c1cc(N(C(=O)C2=C(C(=O)OC)CCCC2)C(=O)c2cccnc2)c(F)cc1Cl | 1
CCC(=O)Nc1ccc(Cl)c(Cl)c1 [Comparative agentB, Propanil, reference compound] | 0

Please state Herbicidal Effect rice for every compound in the list that follows.
1. C#CC(C)Oc1cc(N(C(=O)C2=C(C(=O)OCCOC)CCCC2)C(=O)c2ccc(Cl)nc2)c(F)cc1Cl (stereo not drawn)
2. COC(=O)C1=C(C(=O)N(C(=O)c2cccnc2)c2cc(OC(C)C)c(Cl)cc2F)CCCC1
3. C#CC(C)Oc1cc(N(C(=O)C2=C(C(=O)OCCOCC)CCCC2)C(=O)c2cccnc2)c(F)cc1Cl (stereo not drawn)
4. C#CC(C)Oc1cc(N(C(=O)C2=C(C(=O)OCCOC)CCCC2)C(=O)c2cccnc2)c(Cl)cc1Cl (stereo not drawn)
5. C#CC(C)Oc1cc(N(C(=O)C2=C(C(=O)OCCC)CCCC2)C(=O)c2cccnc2)c(F)cc1Cl (stereo not drawn)
6. C#CC(C)Oc1cc(N(C(=O)C2=C(C(=O)OC3CCCC3)CCCC2)C(=O)c2cccnc2)c(F)cc1Cl (stereo not drawn)
7. COC(=O)C1=C(C(=O)N(C(=O)c2cccnc2)c2cc(C(=O)OC)c(Cl)cc2F)CCCC1

1
1
4
1
1
1
1
